Test Target: UniProtKB O14939
Sequence (O14939 whole entry): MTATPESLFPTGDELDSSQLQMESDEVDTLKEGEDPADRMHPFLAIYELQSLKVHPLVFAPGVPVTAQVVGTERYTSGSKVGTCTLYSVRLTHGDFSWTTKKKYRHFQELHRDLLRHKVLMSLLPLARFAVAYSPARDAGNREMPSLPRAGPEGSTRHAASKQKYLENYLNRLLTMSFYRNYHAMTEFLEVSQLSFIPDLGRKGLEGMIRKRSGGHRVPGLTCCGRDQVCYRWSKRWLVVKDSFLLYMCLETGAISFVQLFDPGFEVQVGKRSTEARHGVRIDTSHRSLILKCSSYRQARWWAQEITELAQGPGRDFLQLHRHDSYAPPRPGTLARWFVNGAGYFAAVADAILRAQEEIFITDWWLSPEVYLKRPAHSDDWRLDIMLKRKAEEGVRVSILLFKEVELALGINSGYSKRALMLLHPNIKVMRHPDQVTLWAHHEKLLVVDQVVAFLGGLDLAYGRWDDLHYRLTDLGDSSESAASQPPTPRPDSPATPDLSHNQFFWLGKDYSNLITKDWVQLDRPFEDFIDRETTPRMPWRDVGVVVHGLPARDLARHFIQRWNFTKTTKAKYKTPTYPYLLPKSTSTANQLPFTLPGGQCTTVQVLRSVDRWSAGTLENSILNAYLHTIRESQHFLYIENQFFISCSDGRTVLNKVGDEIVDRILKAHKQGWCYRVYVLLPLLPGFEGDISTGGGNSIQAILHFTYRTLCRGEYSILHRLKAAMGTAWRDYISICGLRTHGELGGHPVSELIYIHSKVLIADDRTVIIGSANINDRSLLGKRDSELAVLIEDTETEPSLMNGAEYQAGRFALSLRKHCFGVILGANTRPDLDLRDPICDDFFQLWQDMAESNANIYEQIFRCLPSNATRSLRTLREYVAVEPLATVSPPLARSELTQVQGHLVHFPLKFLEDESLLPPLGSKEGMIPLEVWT
Assay Info: Evaluation of human PLD2 enzyme inhibitory activity (Amplex Red / choline oxidase fluorescence)
Assay type: biochemical
Measurement Conditions: full-length human PLD2 enzyme; read-out: PLD2 IC50
Measured Attribute: pIC50
Entry type: numeric. Quantity: pIC50, the -log10 of concentration in molar units.

# count of solved cases: 2
COc1cc(C)c(C2=NNC(=O)O[C@]23CC[C@@H](C[C@H](C)NC(=O)C(=O)NC2CC2)CC3)cn1 [Example 220] :: 7.48
COc1cc(C)c(C2=NNC(=O)O[C@]23CC[C@@H](C[C@H](C)NC(=O)NCc2ccccn2)CC3)cn1 [Example 261] :: 6.50

pIC50 of C[C@@H](C[C@H]1CC[C@]2(CC1)OC(=O)NN=C2c1ccc(C#N)cc1Br)NC(=O)c1cc(C2CC2)n[nH]1 [Example 2-072] on UniProtKB O14939?
7.62
